System: P388
Experiment: Murine P388 Leukemia
Format: in vivo, CD2F1 mice
Details: P388, 50 mg/kg i.p., days 1,5,9
endpoint_label: % ILS

{"columns": ["record_smiles", "system_tested", "% ILS"],
 "data": [
  ["Cl.Cl.Cl.Nc1cccc(-c2ccc3nc4c(C(=O)NCCNCCO)cccn4c(=O)c3c2)c1", "P388", "+4%"],
  ["CN(C)CCNC(=O)c1cccn2c(=O)c3cc(-c4cccc(N)c4)ccc3nc12", "P388", "+2%"],
  ["CN(C)CCNC(=O)c1cccn2c(=O)c3cc(-c4cccc(-c5ccccc5)c4)ccc3nc12", "P388", "+8%"]
]}

INPUT: Please indicate % ILS recorded for COc1ccc(-c2ccc3nc4c(C(=O)NCCN(C)C)cccn4c(=O)c3c2)cc1
OUTPUT: -9%
